tested on: OVCAR-4 ovarian; experiment: NCI tumour cell line growth inhibition, 48 h
OUTCOME MEASURE: TGI (µM)

{"COMPOUND": "c1ccc2c(c1)Oc1cccc3cccc-2c13", "RELATIONAL OPERATOR": ">", "TEST VALUE": 100}
{"COMPOUND": "O=C1C(C=NC(=S)c2ccccc2)=C(O)c2ccccc21", "RELATIONAL OPERATOR": ">", "TEST VALUE": 100}
{"COMPOUND": "Cc1oc2c(C(=O)N/N=C\\c3ccc(O)cc3O)c[nH]c2c1C", "RELATIONAL OPERATOR": ">", "TEST VALUE": 47.1}
{"COMPOUND": "COC1/C(=C\\c2ccccc2I)c2ccccc2N1C(C)=O (stereo not given)", "RELATIONAL OPERATOR": "=", "TEST VALUE": 32.1}
{"COMPOUND": "S=c1[nH]nc(-c2ccccc2)n1/N=C\\c1ccc(-c2ccc(Cl)cc2)o1", "RELATIONAL OPERATOR": ">", "TEST VALUE": 100}
{"COMPOUND": "Cn1cc(-c2csc(-c3c[nH]c4ccccc34)n2)c2cnccc21", "RELATIONAL OPERATOR": "=", "TEST VALUE": 6.52}
{"COMPOUND": "NCCCCCn1c2c(c3ccccc3c1=O)C(=O)c1ccccc1-2", "RELATIONAL OPERATOR": "=", "TEST VALUE": 5.58}
{"COMPOUND": "CC(C)N(C(C)C)[PH+]1O[PH+](N(C(C)C)C(C)C)O[PH+](N(C(C)C)C(C)C)O[PH+](N(C(C)C)C(C)C)O1.[C-]#[O+].[C-]#[O+].[C-]#[O+].[C-]#[O+].[C-]#[O+].[C-]#[O+].[C-]#[O+].[C-]#[O+].[Mo].[Mo] (stereo not given)", "RELATIONAL OPERATOR": ">", "TEST VALUE": 100}
{"COMPOUND": "CN(C)CC1CC/C(=C\\c2ccc(Cl)cc2)C1=O (stereo not given)", "RELATIONAL OPERATOR": "=", "TEST VALUE": 29.1}
{"COMPOUND": "O=C1C2c3[nH]c4ccccc4c3C3CCCCC3C2C(=O)N1c1ccccc1 (stereo not given)", "RELATIONAL OPERATOR": ">", "TEST VALUE": 100}

* * *

tested on: U251 CNS; assay: NCI tumour cell line growth inhibition, 48 h
This listing pairs compounds with measured TGI.

{"COMPOUND": "CCCCCCCCCCCC(=O)NCc1ccc(OC(=O)CCCCCCCCCCC)c(OC)c1", "SYSTEM": "U251 CNS", "TGI": "> 100 µM"}
{"COMPOUND": "c1ccc2c(c1)Oc1cccc3cccc-2c13", "SYSTEM": "U251 CNS", "TGI": "> 100 µM"}
{"COMPOUND": "COC(=O)C(=O)C(C(=O)C(=O)Nc1ccc(OC)cc1[N+](=O)[O-])c1nc2ccc([N+](=O)[O-])cc2[nH]c1=O (centres undefined)", "SYSTEM": "U251 CNS", "TGI": "> 100 µM"}
{"COMPOUND": "CC(C)(C)OC(=O)NC(CSCc1ccc(C(=O)c2ccccc2)cc1)C(=O)O (centres undefined)", "SYSTEM": "U251 CNS", "TGI": "> 100 µM"}
{"COMPOUND": "C#CC[C@@H]1C[C@]2(C)[C@H]3CC[C@@H]4[C@H]5C(C(=C)C)CC[C@]5(C(=O)NCCCCN)CC[C@@]4(C)[C@]3(C)CC[C@H]2C(C)(C)[C@H]1OC(C)=O (some centres undefined)", "SYSTEM": "U251 CNS", "TGI": "3.51 µM"}
{"COMPOUND": "CCc1n[nH]c(=O)n1O", "SYSTEM": "U251 CNS", "TGI": "> 100 µM"}
{"COMPOUND": "COC1O[C@@H]2COC(C)(C)O[C@@H]2C(=O)N1Nc1ccc([N+](=O)[O-])cc1 (some centres undefined)", "SYSTEM": "U251 CNS", "TGI": "> 100 µM"}
{"COMPOUND": "O=C1C(c2ccc([N+](=O)[O-])cc2)=C(Cl)C(=O)c2c(O)cccc21", "SYSTEM": "U251 CNS", "TGI": "32.6 µM"}
{"COMPOUND": "O=C1C2c3[nH]c4ccccc4c3C3CCCCC3C2C(=O)N1c1ccccc1 (centres undefined)", "SYSTEM": "U251 CNS", "TGI": "> 100 µM"}

This collection of values is drawn from PubChem BioAssay (NCI).
